# EXPERIMENTAL_PROTOCOL: soluble on expression in E. coli; label from the status in PepcDB or PDB records
RESULT_TYPE: soluble on expression in E. coli

>>> value_observed("MSLPAYKRVLLKLSGEALMGDDAFGINRSTIEGMVNDIAEIVRLGVQVAVVIGGGNIFRGVAGGAAGMDRATADYMGMLATMMNALALQDAMRHANIEGRVQSALRMDQVVEPYIRPRAIRQLEEGKVVIFAAGTGNPFFTTDTAAALRGSEIGAEIVLKATKVDGVYTADPKKDPSATRYTTISFDEAISRNLQVMDATAFALCRDQKLPIKVFSIQKPNALKRVIMGEDEGTLEGHHHHHH")
"soluble"
>>> value_observed("MSLRIAVVGATGRIGSKLTRTLLGAGHQVKALSRGGAALEALVEAGAEPFLGSFDTGAGALDTFFQDVEAAFLMVKTDWNNIEGHYPAVAQRFVDALRGSPVKLAVSLSAMGSDVDGKTGHFELFHHLDQRLNELNDIDMVHLRAAWFMENTLAWTASVAKYGRLAWFYEPDLKMPWVATDDIAGLAAKELTNPTGDHRVIRETGSEDLTMNELAAMIGREIGKPVEYRFIDRGRKEIENEYLARFGTPEHWLDDSRSADALNHGVVRFQGGDDVRPVLPTTMEAFLKTIWTPRYLEALASEEGHHHHHH")
"soluble"
